Molecular target: Fes (UniProt P07332)
Sequence (P07332 whole entry, looked up): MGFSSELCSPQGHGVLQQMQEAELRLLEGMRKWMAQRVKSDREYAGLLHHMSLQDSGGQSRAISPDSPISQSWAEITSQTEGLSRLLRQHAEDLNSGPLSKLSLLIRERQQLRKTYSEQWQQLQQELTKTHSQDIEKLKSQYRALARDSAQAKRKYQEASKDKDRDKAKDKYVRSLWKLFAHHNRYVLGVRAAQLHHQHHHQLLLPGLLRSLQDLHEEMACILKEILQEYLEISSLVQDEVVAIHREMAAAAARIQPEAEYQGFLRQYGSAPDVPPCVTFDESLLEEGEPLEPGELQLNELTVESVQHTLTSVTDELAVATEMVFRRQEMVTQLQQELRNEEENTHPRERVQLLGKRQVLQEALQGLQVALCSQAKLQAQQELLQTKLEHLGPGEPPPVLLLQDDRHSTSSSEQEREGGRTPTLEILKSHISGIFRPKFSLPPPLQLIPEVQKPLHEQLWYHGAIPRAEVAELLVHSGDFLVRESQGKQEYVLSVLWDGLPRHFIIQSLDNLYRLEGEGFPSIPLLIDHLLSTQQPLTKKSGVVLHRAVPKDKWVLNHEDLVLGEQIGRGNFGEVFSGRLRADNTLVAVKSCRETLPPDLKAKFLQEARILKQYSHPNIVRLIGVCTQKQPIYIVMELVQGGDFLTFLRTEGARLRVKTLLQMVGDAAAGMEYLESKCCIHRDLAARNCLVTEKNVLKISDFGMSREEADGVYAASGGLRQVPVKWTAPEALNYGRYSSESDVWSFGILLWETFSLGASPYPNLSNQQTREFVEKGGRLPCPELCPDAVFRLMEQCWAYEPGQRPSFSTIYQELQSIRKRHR
Test: phosphorylation enrichment, bacterial display (enrichment ratio); higher = better substrate or ligand; peptides without Tyr show the background;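 note: 11-residue human phosphosite peptides and single-mutation variants displayed on the E. coli surface, counted by deep sequencing, each peptide's frequency after selection divided by its frequency in the unselected input library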;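 note: frequency after pTyr selection over input frequency; kinase dosed for 20-30% of maximal phosphorylation in three min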
MEASURED_QUANTITY: phosphorylation enrichment

Q) Requested read-out: phosphorylation enrichment. Entry: VDSNPYSRLMA [UBA5_Y53]
A) 0.657

Q) Same lookup for YGSSSYRGAGG [RPA2_Y14_G15R] , please.
A) 0.483

Q) Same lookup for DKANRYFSPNF [PTEN_Y336] , please.
A) 0.521

Q) Same lookup for PRAEWYRDDLL [MYOM2_Y317_V321L] , please.
A) 1.4

Q) Same lookup for NETNKYQISVN [FGB_Y368_A365T] , please.
A) 0.709

Q) Same lookup for VDSLRYIFPKL [EIF2B3_Y92_A87V_YF] , please.
A) 0.9

Q) Same lookup for IRFPPYTDWNQ [ALDH3B2_Y365_H361R_YF] , please.
A) 0.739

Q) Same lookup for ARRHPYFFAPE [ALB_Y172_Y174F] , please.
A) 0.746

Q) Same lookup for RPSELYFSKIS [SMG1_Y2253_G2258S_YF] , please.
A) 1.4

Q) Same lookup for PAVGIYNDNIN [CDCP1_Y707] , please.
A) 1.08

Q) Same lookup for SSREGYVSHHN [FAM83B_Y433] , please.
A) 0.502

Q) Same lookup for MIHSAYALGGL [CPS1_Y590_R587H] , please.
A) 0.592

Q) Same lookup for KLADMYGGGKD [CDH1_Y876_E880K] , please.
A) 0.692

Q) Same lookup for RRAKGYPIDLY [ITGB2_Y125] , please.
A) 1.29

Q) Same lookup for HGQVNYEEFVQ [CALM2_Y139_D134H] , please.
A) 1.92

Q) Same lookup for RASDYYSQQMA [GBP6_Y334_A331S] , please.
A) 0.744

Q) Same lookup for ASIVDYNIIGW [MYH7_Y588_G584S] , please.
A) 1.22

Q) Same lookup for VNCHQYDGLVG [ATP2A2_Y407_E412G] , please.
A) 0.847

Q) Same lookup for VDSAHYKLLET [DTX3L_Y385] , please.
A) 0.722

Q) Same lookup for EEHIPYTHMNG [INSR_Y1361] , please.
A) 0.85

Q) Same lookup for AVLSLYASGST [ACTG2_Y144_R148S] , please.
A) 1.26

Q) Same lookup for RKLVDYDSAQH [BIN1_Y150_R154Q] , please.
A) 0.988

Q) Same lookup for FTNRSYDLDFD [MYC_Y12_N11S_YF] , please.
A) 1.13

Q) Same lookup for PINLFYLMDLS [ITGB2_Y131_D128N_YF] , please.
A) 1.98

Q) Same lookup for GGGCGYNRSSG [FUS_Y232_G230C] , please.
A) 0.717

Q) Same lookup for LNPVVYTLRNA [OR4C12_Y285] , please.
A) 1.09

Q) Same lookup for AKLKDYFIFNK [CCDC42_Y149_YF] , please.
A) 0.783

Q) Same lookup for RVILRYVNPGT [LAMA3_Y791] , please.
A) 1.13

Q) Same lookup for RQIQSYTCEID [DES_Y331_H326R] , please.
A) 1.08

Q) Same lookup for AGGTRYRYVSQ [UCN3_Y95_R91G] , please.
A) 0.616

Q) Same lookup for ETALHYIHDGI [GATD3A_Y250] , please.
A) 0.796

Q) Same lookup for KELSSYKHLTL [SLIT2_Y776_N775S] , please.
A) 0.53

Q) Same lookup for FISVGYVDDTL [HLA-B_Y51_Q56L] , please.
A) 1.21
